Experiment: gradient 5% acetonitrile 3 min, to 50% in 2 min, to 85% in 15 min, held 3 min, 100 µL/min
Conditions: column: Zorbax Extend-C18 2.1 x 50 mm; eluents: water / acetonitrile, 0.1% formic acid
outcome.measure: RP-LC retention time (s)

CC(C)n1c(=O)sc2cc(S(=O)(=O)N3CCC(C(=O)N4CCN(C)CC4)CC3)ccc21    628
CC(Cc1ccco1)NC(=O)CN1C(=O)CN(C(=O)NCc2ccccc2)c2ccccc21 (configuration not stated)    816
O=c1c2sccc2n(Cc2nc(-c3cccc(Br)c3)no2)c(=O)n1-c1cccc(F)c1    1080
O=C(Cn1nc2n(c(=O)c1=O)CCN2c1ccccc1)Nc1ccc(OC(F)(F)F)cc1    808
Cc1ccc(C)c(NC(=O)NC2CCN(c3ccc(F)c(C)c3)C2=O)c1 (configuration not stated)    891
CCc1ccc(NC(=O)N2CCC(n3cnc4ccc(Cl)cc4c3=O)CC2)cc1    921
Cc1[nH]c(C(=O)N2CCC(CC(=O)NC(C)c3ccccc3)CC2)c(C)c1C(=O)OC(C)C (configuration not stated)    832
CN(C)C(=O)c1cn(C2CN(S(=O)(=O)c3cccc4nsnc34)C2)nn1    657
O=C(NCc1ccncc1)c1ccc(-c2ccsc2)nc1    589
O=C(NCC(O)c1cccc2ccccc12)c1ccccc1C(F)(F)F (configuration not stated)    814
CC(=O)Nc1ccc(S(=O)(=O)N2CC=C(c3cn(C(C)C)c4ncccc34)CC2)cc1    854
Cc1ccc2nc3sc(C(=O)NCC4COc5ccccc5O4)cc3c(=O)n2c1 (configuration not stated)    819
